- SUBJECT_OF_TEST: ZIKV envelope glycoprotein (E) of strain FLR (Colombia 2015) (Zika virus)
- EXPERIMENT_NOTES: cell-based or functional assay
PARAMETER_MEASURED: neutralization IC50, Vero cells (nM)
Kindly provide the numeric value in nM only, without the unit symbol.

These solved cases illustrate the format of a correct answer.
H4H25598P (antibody, V domains shown) VH: EVQLVESGGGLVQPGGSLRLSCAASGFTVSSNYMSWVRQAPGSGLEWVSVIYSGGITHYIGSVKGRFTISRHNSKNTLYLQMNSLRAEDTAMYYCARERYSGITGNPYGFDFWGQGTMVTVSS VL: DIQLTQSPSFLSASVGDRVTITCWASQDISSYLAWYQQKPGIAPKLLIYSASTLQSGVPSSFSGSGSGTEFTLTISSLQPEDFATYYCQQLNIYPFTFGPGTKVDIK	0.553
H4H25641P (antibody, V domains shown) VH: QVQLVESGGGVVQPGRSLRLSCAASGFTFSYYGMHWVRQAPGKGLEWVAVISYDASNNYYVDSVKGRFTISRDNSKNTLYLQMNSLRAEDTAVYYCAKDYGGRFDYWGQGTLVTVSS VL: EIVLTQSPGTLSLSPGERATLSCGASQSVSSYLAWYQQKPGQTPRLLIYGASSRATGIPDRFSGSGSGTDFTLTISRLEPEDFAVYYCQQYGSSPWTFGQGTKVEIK	0.212
H4H25630P (antibody, V domains shown) VH: QVQLVQSGAEVKRPGASVKVSCKASDYTFTDYGISWVRQAPGQGLEWMGWFNTYNGNTNYAQKFQGRITMTTDTSTSTAYMELRSLRSDDTAIYYCARDWGLHYFENWGQGTLVTVSS VL: EIVLTQSPGTLSLSPGERATLSCRASQSVRNSYLAWYQQKPGQAPRLLIYGASSRDTGIPDRFSGSGSGTDFTLTISRLEPEDFAVYYCQQYGRSPWTFGQGTKVEIK	0.283
H4H25703N (antibody, V domains shown) VH: QVQLVESGGGVVQPGRSLRLSCAASGFTFNYYGMHWVRQAPGKGLEWVAVISYDGTNKYYADSVKGRFTTSRDNSKNTLYLQMNSLRAEDTALYYCARDRGGRFDYWGQGIQVTVSS VL: EIVLTQSPDTLSLSPGERATLSCRASQSVSSNYLAWYQQKPGQAPRLLIYGASSRATGIPDRFSGSGSGTDFTLTISRLEPEDFAVYYCQRYGTSPLTFGGGTKVEIKR	0.0619

Could you now consider this next binder?
Query: Fill in neutralization IC50, Vero cells for record H4H25633P (antibody, V domains shown) VH: EVQLVESGGGLVQPGRSLRLSCAASGFTFDDYAIHWVRQAPGKGLEWVSGISWNSGYLGYADSVKGRFTISRDNAKNSLYLQMNSLRAEDTAFYYCAKDVAWGSVRHVFEIWGQGTMVTVSS VL: EIVLTQSPGTLSLSPGERATLSCRASQTITGNQLAWYQQKPGQAPRLLIYFTSSRATGIPDRFSGSGSGTDFSLTISRLEPEDFAVYFCQQFGYSPWTFGQGTKVEIK
Result: 0.44
